Origin of measurements: patent US6333176A

Biological target: peptide amidase from Xanthomonas maltophilia (Stenotrophomonas maltophilia)
Construct: wild type, not recombinant
Sequence (Q8RJN5 34-540): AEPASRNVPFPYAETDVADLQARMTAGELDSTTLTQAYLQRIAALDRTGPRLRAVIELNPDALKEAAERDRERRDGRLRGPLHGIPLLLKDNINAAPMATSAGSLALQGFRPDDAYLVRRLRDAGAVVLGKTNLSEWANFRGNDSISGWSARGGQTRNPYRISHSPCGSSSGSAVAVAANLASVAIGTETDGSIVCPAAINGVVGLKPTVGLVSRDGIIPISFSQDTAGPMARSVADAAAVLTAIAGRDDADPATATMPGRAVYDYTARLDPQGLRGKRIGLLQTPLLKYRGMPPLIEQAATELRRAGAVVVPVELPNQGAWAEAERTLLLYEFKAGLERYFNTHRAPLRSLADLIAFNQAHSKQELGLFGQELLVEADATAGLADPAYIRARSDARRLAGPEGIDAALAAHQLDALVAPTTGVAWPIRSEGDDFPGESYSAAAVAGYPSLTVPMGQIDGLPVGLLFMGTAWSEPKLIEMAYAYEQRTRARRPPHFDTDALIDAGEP
Assay: biochemical
Assay type: biochemical
Settings: potential inhibitor 10 mM in the test, preincubation 1 h 30° C., Z-Gly-Tyr-NH2 10 mM, 2.5 h
Kindly return Criterion met if reported residual activity is no lower than 80%; return Criterion not met if it is lower.

>>> class("O.O.O.O.O.O.[Cl][Ni][Cl] [NiCl2 *6 H2 O]")
"Criterion met"
>>> class("O.O.O.O.O.O=S(=O)([O-])[O-].[Cu+2] [CuSO4 *5 H2 O]")
"Criterion met"
>>> class("O.O.O.O.O.O.[Cl][Hg][Cl] [HgCl2 *6 H2 O]")
"Criterion not met"
>>> class("O=S(=O)(F)Cc1ccccc1 [Phenylmethane sulfonyl fluoride]")
"Criterion not met"
>>> class("NCCc1ccc(S(=O)(=O)F)cc1 [Pefabloc]")
"Criterion not met"

====

Target: peptide amidase from Xanthomonas maltophilia (Stenotrophomonas maltophilia, UniProt Q8RJN5)
Construct: wild type, not recombinant
Sequence (Q8RJN5 34-540): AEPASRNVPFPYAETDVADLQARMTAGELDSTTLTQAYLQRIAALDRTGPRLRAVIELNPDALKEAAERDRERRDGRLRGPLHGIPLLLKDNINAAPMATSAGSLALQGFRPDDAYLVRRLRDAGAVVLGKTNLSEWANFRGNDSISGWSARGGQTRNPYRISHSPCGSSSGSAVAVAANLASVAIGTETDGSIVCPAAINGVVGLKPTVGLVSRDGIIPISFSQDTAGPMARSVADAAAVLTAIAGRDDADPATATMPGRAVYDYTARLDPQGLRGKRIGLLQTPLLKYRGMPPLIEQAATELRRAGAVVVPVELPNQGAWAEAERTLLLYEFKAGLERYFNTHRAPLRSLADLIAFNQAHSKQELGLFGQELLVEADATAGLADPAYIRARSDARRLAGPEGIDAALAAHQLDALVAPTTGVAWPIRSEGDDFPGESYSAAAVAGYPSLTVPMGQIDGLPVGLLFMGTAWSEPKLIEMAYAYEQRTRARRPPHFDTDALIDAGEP
Experiment: biochemical
Assay type: biochemical
Settings: potential inhibitor 10 mM in the test, preincubation 1 h 30° C., Z-Gly-Tyr-NH2 10 mM, 2.5 h; read-out: residual activity
Overview of recorded remaining activity at 10000 µM for various compounds
QUANTITY_KIND: remaining activity at 10000 µM (%)

>>> value_measured("CCCCC[C@H](CC(=O)NO)C(=O)N[C@H](C(=O)N1CCC[C@H]1CO)C(C)C")
106
>>> value_measured("c1cnc2c(c1)ccc1cccnc12")
92
>>> value_measured("NNC(N)=O [Semicarbazide]")
99
>>> value_measured("c1ccc(-c2ccccn2)nc1")
97
>>> value_measured("O[C@H](CS)[C@H](O)CS (relative stereo)")
96
>>> value_measured("N[C@@H]1CONC1=O")
100
